# tgt: HLA-A*02:01_… (HLA-PEPTIDE target G8), soluble (human, enzymatically biotinylated (BirA) for screening and BLI)
# testName: scFv PPE ELISA
Please go through the items and note down their fold selective binding, target pHLA vs minipool of negative control pHLAs.

Return reported fold selective binding, target pHLA vs minipool of negative control pHLAs; argument: scFv R3G8-P5F02 (scFv, V domains shown, scFv) VH: QVQLVQSGAEVKKPGASVKVSCKASGYTFTGYYIHWVRQAPGQGLEWMGVINPSGGSTTYAQKLQGRVTMTRDTSTSTVYMELSSLRSEDTAVYYCARDRDSSWTYYYYGMDVWGQGTTVTVSS VL: EIVMTQSPATLSVSPGERATLSCRASQSVGNSLAWYQQKPGQAPRLLIYGASTRATGIPARFSGSGSGTEFTLTISSLQSEDFAVYYCQQYGSSPYTFGQGTKVEIK
≥ 3 fold

Which fold selective binding, target pHLA vs minipool of negative control pHLAs value is on record for scFv R3G8-P4F05 (scFv, V domains shown, scFv) VH: QVQLVQSGAEVKKPGASVKVSCKASGYTFSNMYLHWVRQAPGQGLEWMGWINPNTGDTNYAQTFQGRVTMTRDTSTSTVYMELSSLRSEDTAVYYCARGLYGDYFLYYGMDVWGQGTKVTVSS VL: DIQMTQSPSSLSASVGDRVTITCRASQGISNYLAWYQQKPGKAPKLLIYAASTLQSGVPSRFSGSGSGTDFTLTISSLQPEDFATYYCQQSYSTPLTFGGGTKVEIK ?
≥ 3 fold

Which fold selective binding, target pHLA vs minipool of negative control pHLAs reading was recorded for the binder scFv G8-P1C01 (scFv, V domains shown, scFv) VH: QVQLVQSGAEVKKPGASVKVSCKASGGTFSSHAISWVRQAPGQGLEWMGVIIPSGGTSYTQKFQGRVTMTRDTSTSTVYMELSSLRSEDTAVYYCARGDYYDSSGYYFPVYFDYWGQGTLVTVSS VL: DIQMTQSPSSLSASVGDRVTITCRASQNIYTYLNWYQQKPGKAPKLLIYDASNLETGVPSRFSGSGSGTDFTLTISSLQPEDFATYYCQQANGFPLTFGGGTKVEIK ?
≥ 3 fold

Quick check: fold selective binding, target pHLA vs minipool of negative control pHLAs of scFv G8-P1A03 (scFv, V domains shown, scFv) VH: QVQLVQSGAEVKKPGASVKVSCKASGGTFSRSAITWVRQAPGQGLEWMGWINPNSGATNYAQKFQGRVTMTRDTSTSTVYMELSSLRSEDTAVYYCARDDYGDYVAYFQHWGQGTLVTVSS VL: DIQMTQSPSSLSASVGDRVTITCRASQSITSYLNWYQQKPGKAPKLLIYDASNLETGVPSRFSGSGSGTDFTLTISSLQPEDFATYYCQQNYNSVTFGQGTKLEIK ?
≥ 3 fold

Quick one: fold selective binding, target pHLA vs minipool of negative control pHLAs of scFv G8-P1H08 (scFv, V domains shown, scFv) VH: QVQLVQSGAEVKKPGASVKVSCKASGYTFGNYFMHWVRQAPGQGLEWMGMVNPSGGSETFAQKFQGRVTMTRDTSTSTVYMELSSLRSEDTAVYYCAASTWIQPFDYWGQGTLVTVSS VL: DIQMTQSPSSLSASVGDRVTITCRASQGINSYLAWYQQKPGKAPKLLIYDASNLETGVPSRFSGSGSGTDFTLTISSLQPEDFATYYCQQHNSYPPTFGQGTKLEIK ?
≥ 3 fold

Quick one: fold selective binding, target pHLA vs minipool of negative control pHLAs for scFv G8-P1B03 (scFv, V domains shown, scFv) VH: EVQLLESGGGLVQPGGSLRLSCAASGFTFSDYYMSWVRQAPGKGLEWVSGINWNGGSTGYADSVKGRFTISRDNSKNTLYLQMNSLRAEDTAVYYCARVEQGYDIYYYYYMDVWGKGTTVTVSS VL: DIQMTQSPSSLSASVGDRVTITCRASQSISSYLNWYQQKPGKAPKLLIYKASSLESGVPSRFSGSGSGTDFTLTISSLQPEDFATYYCQQSYSAPYTFGPGTKVDIK ?
≥ 3 fold
